system: IGROV1 ovarian; assay: NCI-60 one-dose screen, 48 h; settings: 10 µM unless noted
The panel holds about 83,000 compounds, 20% with a hit somewhere; the sample as a whole holds those more often. The source made the active and inactive calls. How the source made its calls: active means growth percent below 10; inactive means the rest.
Allowed answers: active, inactive

Observe how each entry below is paired with its result.
O=C(Nc1ccc(Oc2cccc(Cl)c2)c(Cl)c1)c1cnccn1 = inactive
CC(C)(C)[Si](C)(C)OC1[C@@H](CNC(=O)NC(=O)NC(N)=O)O[C@@H](n2cnc3c(NC(=O)Nc4ccccc4)ncnc32)[C@H]1O[Si](C)(C)C(C)(C)C (stereo not given in full) = inactive
O=C1NC(=C(Cl)Cl)/C(=N\S(=O)(=O)NCc2ccccc2)N1 = inactive

Input line: Hello, I am checking results. What call was entered for `O=C1C(Cl)=C(NCCCCCCNC2=C(Cl)C(=O)c3ccccc3C2=O)C(=O)c2ccccc21` ?
Output line: inactive

Input line: Given `COc1ccc(C(=O)N2c3ccccc3Sc3ccccc32)c(OC)c1` , state the outcome it received in this test.
Output line: inactive

Input line: Hello, I am checking results. What call was entered for `COc1ccc2cc1Oc1ccc(cc1)C[C@H]1c3c(cc4c(c3Oc3cc5c(cc3OC)CCN(C)[C@@H]5C2)OCO4)CCN1C` ?
Output line: inactive

Input line: Please indicate how the test categorized `CN(C)c1ccc(C(=O)OCCCCCCl)cc1` .
Output line: inactive

Input line: // param item: `S=c1sc2c(Cl)nc(-c3cccnc3)nc2n1-c1ccccc1` ; yields the recorded call
Output line: active

Input line: State the result this test recorded for `Cc1[nH]c(=O)[nH]c(=O)c1Br` .
Output line: inactive

Input line: Recorded test outcome, item `C=CC[Se]C(=O)Cc1c(C)n(C(=O)c2ccc(Cl)cc2)c2ccc(OC)cc12`
Output line: active

Input line: Give the logged outcome of this assay for the following compound: `O=C(c1ccccc1)c1ccc(C2CCCCC2)cc1`
Output line: inactive

Input line: So what was the verdict on CCC(C)(C)C(=O)O[C@H]1C[C@@H](C)C=C2C=C[C@H](C)[C@H](CC[C@@H]3CC(SCCN)CC(=O)O3)[C@H]21 (stereo not given in full) in this test?
Output line: inactive

Input line: # lookup: test call for `O=C(O)CCN1C(=O)/C(=C/C(Cl)=C/c2ccccc2)SC1=S`
Output line: inactive

Input line: I'd appreciate the recorded outcome for `Cc1cc(C(=O)Nc2ncc(Cc3cccc(C(F)(F)F)c3)s2)c2ccccc2n1` from this test.
Output line: inactive

Input line: So what was the verdict on `Cc1[nH]c(C(=O)Nc2ccc(C(=O)N3CCN(c4cc5c(cc4F)c(=O)c(C(=O)O)cn5C4CC4)CC3)cc2OC(C)C)c(Cl)c1Cl` in this test?
Output line: inactive

Input line: Test call, this compound: `COc1ccc(NC2=C(I)C(=O)c3ncccc3C2=O)cc1`
Output line: active

Input line: Identify the outcome logged in this assay for the compound shown: `CCSc1nc2scc(C)c2c(=O)[nH]1`
Output line: inactive

Input line: Write down the call the test reported for this compound. Item: `O=c1scc(-c2ccc(C(F)(F)F)cc2)s1`
Output line: inactive

Input line: Fill in: this test's call for `CCN(CC)CCn1c2ccc(OC)cc2c2sc3cc(OC)ccc3c(=O)c21` is ___
Output line: inactive

Input line: What did this assay record as the result for `CC(=O)c1c(C)nc2ccccc2c1/C=C/c1ccc(F)cc1` ?
Output line: inactive

Sourced from PubChem BioAssay (NCI)
